biological target: Histone deacetylase 3 (Homo sapiens); assay: HDAC3 deacetylase inhibitors, primary screen, biochemical, fluorescence, cell-free homogeneous (AID 2718); conditions: recombinant HDAC3, fluorogenic peptide/trypsin coupled, at 8.3 µM, hits give high values
The whole screen tested about 320,000 compounds, of which about 480 (0.15%) were called active. Inconclusive results (about 1%) are left out. The sample holds actives, similar compounds and a random draw of the others, so the mix is not that of the screen.
test-readout: inhibition (%)
Give bare numbers, in %.

# batch: return inhibition for each of the 7 molecules below
1. Cc1ccc(S(=O)(=O)N(CCCN(C)C)Cc2ccc3c(c2)OCO3)cc1
2. C=CC[C@@H](CC(=O)N[C@@H](CO)Cc1ccccc1)C(=O)NCCOC(=O)[C@@H](CC=C)CC(=O)OC(C)(C)C
3. COc1ccc(NC(=O)N(C)C[C@H]2Oc3ccc(NC(=O)C4CC4)cc3C(=O)N([C@H](C)CO)C[C@@H]2C)cc1
4. O=C(OCC(=O)N1CCCCCC1)c1ccc(Br)c(S(=O)(=O)N2CCOCC2)c1
5. C=CC[C@@H](CC(=O)N[C@H](CO)Cc1ccccc1)C(=O)N[C@H](C)COC(=O)[C@@H](CC=C)Cc1ccc(F)cc1
6. C=CCC[C@@H](Cc1ccc(F)cc1)C(=O)O[C@H](CNC(=O)[C@H](CC=C)CC(=O)N(CCO)Cc1ccccc1)c1ccccc1
7. COc1cc(/C=C/C(=O)OCC(=O)c2ccccc2)cc(OC)c1OC

Reply:
[5.59, 0.71, 2.07, -0.213, 19.7, 48.4, -7.7]

Query: What measured inhibition goes with C#CCOCCOCCOCCNc1nc(N2CCN(C(=O)CCCCCCCCCCNC(=O)Cn3cc(CCCCCN)nn3)CC2)nc(N2CCN(C(=O)CCCCCCCCCCNC(=O)[C@H](CO)n3cc(CCCSC)nn3)CC2)n1 ?
Reply: 22.2

###

biological target: Histone deacetylase 3 (Homo sapiens); assay: HDAC3 deacetylase inhibitors, primary screen, biochemical, fluorescence, cell-free homogeneous (AID 2718); details: recombinant HDAC3, fluorogenic peptide/trypsin coupled, at 8.3 µM
The campaign covered roughly 320,000 compounds. About 480 (0.15%) were called active. Roughly 1% stayed inconclusive and do not appear here. Rule as the data show it: active = inhibition above about 26% (passing the limit was not always enough); inconclusive = no clear call, values can overlap the other calls. What follows is part of a selection rich in actives, with near analogues and random picks from the rest.
Mark one answer only. Choices: True (active), False (inactive)

Consider the worked cases shown below.
>  <molecule>
COC(=O)c1nc(NC(=O)c2ccccc2)n[nH]1

>  <label>
True

$$$$
>  <molecule>
COC(=O)c1nc(NC(=O)c2ccc(Cl)cc2)n[nH]1

>  <label>
False

$$$$
>  <molecule>
COc1ccc(N2C(=O)C(CC(=O)Nc3ccc(F)cc3)N(CCc3cccs3)C2=O)cc1 (stereo not given)

>  <label>
False

$$$$
>  <molecule>
CCCc1cc(=O)[nH]c(SCC(=O)Nc2ccc(S(=O)(=O)N3CCCC3)cc2)n1

>  <label>
False

$$$$

Below: the item to evaluate.
Query: Write down the call the test reported for this molecule. Item: CCOC(=O)C1CCN(CC(=O)Nc2ccc(OC)c(S(=O)(=O)N3CCCCC3)c2)CC1
Reply: False

###

target: Histone deacetylase 3 (Homo sapiens); test: HDAC3 deacetylase inhibitors, primary screen, biochemical, fluorescence, cell-free homogeneous (AID 2718); details: recombinant HDAC3, fluorogenic peptide/trypsin coupled, at 8.3 µM, hits give high values
Screen size: about 320,000 compounds; about 480 (0.15%) were called active. Not shown: some 1% with an inconclusive outcome. This excerpt belongs to a sample that is enriched for actives.
test-readout: inhibition (%)
Answers are plain numbers, in %.

# annotated cases, reported inhibition shown
>  <molecule>
COC(=O)[C@]1(CC(C)C)N[C@H](c2ccc(SC3CCCCC3)cc2)[C@@H]2C(=O)N(C)C(=O)[C@@H]21

>  <inhibition (%)>
16

$$$$
>  <molecule>
COc1cc(NC(=O)CN2C(=O)NC(C)(c3ccc(OC(F)F)cc3)C2=O)cc(OC)c1OC (stereo not drawn)

>  <inhibition (%)>
5.68

$$$$

Query: Endpoint output: inhibition of Cc1c(CCO)c(=O)[nH]n1C(=O)c1c(F)cccc1F . Value?
Reply: -6.64
